# Tested on: SF-295
# Test method notes: NCI tumour cell line growth inhibition, 48 h
Activity calls are given as the source filed them. Cut-off read from the data, not from the text of the source: active = GI50 up to about 1.1 µM and inactive = higher.
Outcomes: y = active, n = inactive

| Compound | Label class |
| --- | --- |
| c1ccc2c(c1)CC1c3[nH]c4ccccc4c3CCN21 (stereo not given) | n |
| Cc1c2nc3ccccc3sc-2cc(=O)c1C | n |
| Cc1ccc(S(=O)(=O)NCCSS(=O)(=O)c2ccc(C)cc2)cc1 | n |
| c1ccc2c(OCCSCCCCCCCCCCSCCOc3cccc4ccccc34)cccc2c1 | n |
| Clc1ccc(-c2c(C3=NCCN3)nnn2-c2ccc(Cl)cc2)cc1 | n |
| COc1cc2c(/C=C3/C(=O)N(C)c4ccc(O)cc43)c(Cl)[nH]c2cc1C | y |
| Nc1nc(Cl)cc(NCC2(CO)CCC(Cc3ccccc3)C2)n1 (stereo not given) | n |
| O=C1c2cccc(O)c2C(=O)c2c(O)cccc21 | n |
| COc1cccc(C2c3cc4c(cc3OC(NNS(=O)(=O)c3ccc(C)cc3)C2C)OCO4)c1O (stereo not given) | n |
| COc1cccc(C2c3cc4c(cc3OC(C)(N3CCCC3)C2C)OCO4)c1O (stereo not given) | n |
| NC1C[C@H](n2cc(/C=C/Br)c(=O)[nH]c2=O)C[C@@H]1CO (stereo not given in full) | n |
| COc1ccc2cc3nc(O)cc(O)c3cc2c1OC | n |
| CCOC(=O)c1cn2c([nH]c3ccccc32)c(C#N)c1=O | n |
| CSC1SCC2C(=O)N(C)C(C(C)C)C(=O)OCC(NC(=O)c3cnc4ccccc4n3)C(=O)NC(C)C(=O)N(C)C1C(=O)N(C)C(C(C)C)C(=O)OCC(NC(=O)c1cnc3ccccc3n1)C(=O)NC(C)C(=O)N2C (stereo not given) | y |
| O=C(O)c1ccc(O)c(/N=N/c2cc(S(=O)(=O)O)c3ccccc3c2O)c1 | n |
| NC(=O)C(NC=O)c1ccccc1 (stereo not given) | n |
| CCN1CC2(COC)C(O)CC(OC)C34C5CC6(O)C(OC)C=C(C5C6OC(=O)c5ccc(OC)c(OC)c5)C(C(OC)C23)C14 (stereo not given) | n |
| Nc1ccc(C(=O)/C=C/c2ccccc2O)cc1 | n |
| COC(=O)c1ccccc1CC(Cc1ccccc1)C(=O)OC (stereo not given) | n |
| COc1ccc(C2NC(=S)Nc3c2c(=O)oc2c3ccc3ccccc32)cc1 (stereo not given) | n |

====

# System: IGROV-1
# Test method notes: NCI tumour cell line growth inhibition, 48 h
Calls of active or inactive are those of the source. Rule as the data show it: active = GI50 up to about 1.1 µM and inactive = higher.
As shown below, each of these molecules has a reported GI50 value.
Experimental endpoint: GI50

| Molecule | Result |
| --- | --- |
| CN(C)C(=O)Oc1c(Br)cc(Br)cc1C(=O)OCc1ccccc1 | 28.6 µM (inactive) |
| CC1(C)C(=S)C(C)(C)C1=S | > 100 µM (inactive) |
| CCCCCC(C(O)C#N)C(O)(C(F)(F)F)C(F)(F)F (stereo unspecified) | > 10 µM (inactive) |
| CCOc1ccc(NC(=S)N/C=C(/C(C)=O)C(=O)Nc2ccccc2C)cc1 | > 100 µM (inactive) |
| COc1ccc2c(O)c3[n+](cc2c1OC)CCc1cc2c(cc1-3)OCO2 | 91.8 µM (inactive) |
| O[C@H]1[C@H]2[C@H](O)CCCN2C[C@H]1O | > 100 µM (inactive) |
| Cc1c(N2C(=O)/C(=C/c3ccc(N(CCC#N)CCC#N)cc3)N=C2c2ccccc2)c(=O)n(-c2ccccc2)n1C | > 100 µM (inactive) |
| CCN(CC)CCn1c2cc3c(cc2c(=O)c2cccnc21)OCO3 | 4.88 µM (inactive) |
| CC(=O)c1ccccc1NP(=O)(c1ccccc1)c1ccccc1 | 46.5 µM (inactive) |
| COC(=O)C1=COc2c(n(C)c3ccccc23)-c2ccccc21 | 20.2 µM (inactive) |
| CC[C@@H]1CC[C@@H]2[C@H](CC[C@]3(C)[C@@H](O)CC[C@@H]23)[C@H]1CO | > 100 µM (inactive) |
